Recorded XC50 for the following compounds
Test system: Plasmodium falciparum
Assay Comment: GSK_TCMDC: Inhibition of Plasmodium falciparum 3D7 in whole erythrocytes, using parasite LDH activity as an index of growth.
Assay type: functional, organism-based
Reported Conditions: Plasmodium falciparum, 3D7

>  <Compound>
FC(F)(F)c1cccc(CNCC2CCN(CC3CCCCC3)CC2)c1

>  <Experimental Target>
Plasmodium falciparum

>  <Unit Name>
nM

>  <XC50>
402

$$$$
>  <Compound>
c1cc(CN2CCC(CCN3CCCCC3)CC2)cc(-c2csc(-c3nc4ccccc4[nH]3)c2)c1

>  <Experimental Target>
Plasmodium falciparum

>  <Unit Name>
nM

>  <XC50>
142

$$$$
>  <Compound>
CC(Cc1ccc(OCCCCOc2ccccc2)cc1)NCCCN1CCOCC1 (stereo not given)

>  <Experimental Target>
Plasmodium falciparum

>  <Unit Name>
nM

>  <XC50>
725

$$$$
>  <Compound>
COc1ccc(NC(=O)[C@H](CC(C)C)Nc2cc(C)nc(NCc3cccc(C)c3)n2)cc1

>  <Experimental Target>
Plasmodium falciparum

>  <Unit Name>
nM

>  <XC50>
1020

$$$$
>  <Compound>
Cn1nc(-c2ccc(NC(=O)Nc3cc(C(F)(F)F)ccc3F)cc2)c2cnc(NCCc3c[nH]cn3)nc21

>  <Experimental Target>
Plasmodium falciparum

>  <Unit Name>
nM

>  <XC50>
813

$$$$
>  <Compound>
COc1c(C2CCN(CCCCNC(=O)c3ccc(-c4ccc(C(F)(F)F)cc4)c(C(=O)OC(C)C)c3)CC2)ccc2c1CCCC2

>  <Experimental Target>
Plasmodium falciparum

>  <Unit Name>
nM

>  <XC50>
858

$$$$
>  <Compound>
C=CCc1cc(Cc2cnc(N)nc2N)cc(CCC)c1O

>  <Experimental Target>
Plasmodium falciparum

>  <Unit Name>
nM

>  <XC50>
986

$$$$
>  <Compound>
CC(C)(c1ccccc1)c1ccc(O)c(CN2CCOCC2)c1

>  <Experimental Target>
Plasmodium falciparum

>  <Unit Name>
nM

>  <XC50>
984

$$$$
>  <Compound>
O=C(Nc1nc2cc(S(=O)(=O)NCc3ccc(Cl)c(Cl)c3)ccc2n1CCCN1CCCC1)c1ccc(Cl)cc1

>  <Experimental Target>
Plasmodium falciparum

>  <Unit Name>
nM

>  <XC50>
939

$$$$
>  <Compound>
CN=C(S)NN=C(C)c1ccccn1

>  <Experimental Target>
Plasmodium falciparum

>  <Unit Name>
nM

>  <XC50>
272

$$$$
>  <Compound>
CCn1c(-c2nonc2N)nc2c(-c3cccc(NC(=O)Nc4cccc(C(F)(F)F)c4)c3)ncc(OCCCN)c21

>  <Experimental Target>
Plasmodium falciparum

>  <Unit Name>
nM

>  <XC50>
969

$$$$
>  <Compound>
CC(=O)C1(c2ccccc2)CCN(CCC2(c3ccc(Cl)c(Cl)c3)CN(C(=O)Nc3cccc(C(F)(F)F)c3)CCO2)CC1 (stereo not given)

>  <Experimental Target>
Plasmodium falciparum

>  <Unit Name>
nM

>  <XC50>
1050

$$$$
>  <Compound>
CCCCCCCN1CC[C@@H](CCCc2ccnc3ccc(OCCC4CCNCC4)cc23)[C@@H](CC)C1

>  <Experimental Target>
Plasmodium falciparum

>  <Unit Name>
nM

>  <XC50>
610

$$$$
>  <Compound>
CCN(Cc1ccccc1)C1CCN(Cc2cc(Br)ccc2O)CC1

>  <Experimental Target>
Plasmodium falciparum

>  <Unit Name>
nM

>  <XC50>
823

$$$$
>  <Compound>
CC(C)COc1ccc(Cl)cc1Cc1ccc(-c2nc3ccc(F)c(F)c3[nH]2)o1

>  <Experimental Target>
Plasmodium falciparum

>  <Unit Name>
nM

>  <XC50>
942

$$$$
>  <Compound>
Nc1nc(N)c2c(ccc3c2ccn3CCCC(F)(F)F)n1

>  <Experimental Target>
Plasmodium falciparum

>  <Unit Name>
nM

>  <XC50>
98

$$$$
>  <Compound>
Cc1cc(C)c2nc(N3CCC(C(=O)NCCCN4CCC(N5CCCCC5)CC4)CC3)sc2c1

>  <Experimental Target>
Plasmodium falciparum

>  <Unit Name>
nM

>  <XC50>
838

$$$$
>  <Compound>
CC=CC1CCNC(C(O)c2ccnc3ccc(OC)cc23)C1 (stereo not given)

>  <Experimental Target>
Plasmodium falciparum

>  <Unit Name>
nM

>  <XC50>
1090

$$$$
>  <Compound>
O=C1OC(c2ccccc2)(c2ccccc2)CN1C1CCN(Cc2ccc(O)c(Cl)c2)C1 (stereo not given)

>  <Experimental Target>
Plasmodium falciparum

>  <Unit Name>
nM

>  <XC50>
955

$$$$
>  <Compound>
NC1=NC(c2ccccc2)(c2cccc(O)c2)C(=O)N1CCCc1ccccc1 (stereo not given)

>  <Experimental Target>
Plasmodium falciparum

>  <Unit Name>
nM

>  <XC50>
1230

$$$$
